Taken from the supplement of paper PMC11451515.

Please provide measured cell viability for the entries that follow.
# Tested on: NOMO1
# ASSAY_OVERVIEW: cell viability relative to DMSO control; higher = less cytotoxic
# REPORTED_CONDITIONS: HPLM + 10% dialyzed FBS; 48 h; 0.0211 µM
Form entry: value (%) — number only.

Per the reported NOMO1 data, NC1CCC(Nc2nc(Nc3ccc(C(=O)N4CCCCC4)cc3)c3ncn(-c4cccc(F)c4)c3n2)CC1 (stereo unspecified) has cell viability of 121

Observed cell viability on NOMO1, entry `Cn1c(=O)c2[nH]cnc2n(C)c1=O` , equals 122

With NOMO1 as the test system, `CN1CCN(Cc2ccc(NC(=O)Nc3ccc(Oc4cc(NC(=O)C5CC5)ncn4)cc3)cc2C(F)(F)F)CC1` showed cell viability of 129

Here CCc1cccc2c3c([nH]c12)C(CC)(CC(=O)O)OCC3 (stereo unspecified) was tested on NOMO1, and its cell viability came to 105

# OC(CCN1CCCCC1)(C2CC\3CC2\C=C3)C4=CC=CC=C4 (stereo unspecified) with NOMO1: cell viability is 123

Note to self: cell viability of `CO[C@H]1/C=C/O[C@@]2(C)Oc3c(C)c(O)c4c(O)c(c(/C=N\N5CCN(C6CCCC6)CC5)c(O)c4c3C2=O)NC(=O)/C(C)=C\C=C\[C@H](C)[C@H](O)[C@@H](C)[C@@H](O)[C@@H](C)[C@H](OC(C)=O)[C@@H]1C` with NOMO1 was 116
